- Test system: BMKC
- assay method text: Anti-cancer assay, MTT, LD50
- Format: cell-based
- condition label: BMKC cloned melanoma line, 24 hours with peptide
No end group written: not given here.
property label: LD50 BMKC

Please review the entries below; each comes with its answer.
FAKKLAKLAKKL-NH2 [P106]	690 µg/mL
FALALKLKKL-NH2 [P181]	830 µg/mL
VAKKLAKLAKKLAKLAL-NH2 [P50]	40 µg/mL
KWKLFKKIGAVLKVL-NH2 [P53, reference compound]	40 µg/mL
FAKKLAKKLAKAL-NH2 [P74, FAKKLAKKLAKAL-NH2]	460 µg/mL
FAKKLAKLAKKLLAL-NH2 [P38, FAKKLAKLAKKLLAL-NH2]	21 µg/mL
FAKKLAKKLAKLAL-NH2 [P45, FAKKLAKKLAKLAL-NH2]	160 µg/mL
KYKKALKKLAKLL-NH2 [P146]	185 µg/mL
FAKKFAKKFKKFAKKFAKFAFAF-NH2 [P301, reference compound]	140 µg/mL
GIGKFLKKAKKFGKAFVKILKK-NH2 [P42, reference compound]	140 µg/mL

Requested field: LD50 BMKC. Item: KLAKKLAKLAKLAKAL-NH2 [P159, reference compound] 140 µg/mL

For VALALKALKKL-NH2 [P180] , what is its reported LD50 BMKC? 770 µg/mL

Consider the substance FAKLWAKLAKKL-NH2 [P136] and give its measured LD50 BMKC. 530 µg/mL

Requested field: LD50 BMKC. Item: FAKLLAKKLL-NH2 [P57] 740 µg/mL

For the substance FAKKLAKKLKKLAKKLAKLAKKL-NH2 [P307, reference compound] , what LD50 BMKC is on record? 83 µg/mL

May I ask what LD50 BMKC has been recorded for FAKLFAKLAKKFAL-NH2 [P121, FAKLFAKLAKKFAL-NH2] ? 670 µg/mL

Name the recorded LD50 BMKC for FAKKLAKKLKKLAKLALAK-NH2 [P41] . 290 µg/mL
